Data credit: a melting point compilation (Tetko et al.; mined from patent text by program, amines drawn as free bases though some values may be those of a salt)

Measured melting point by item

Name the recorded melting point for CCCCCCCCC#CCC#CCC#CCO . 48 °C

Next:
Reported melting point, compound Cc1ccc(C#CCOCCn2cnc3c(N)nc4ccccc4c32)cc1C : ____ 214 to 216 °C

Which melting point is listed for COc1ccc(NC(=O)c2c(Cl)cccc2Cl)c2nccc(NNC(C)=O)c12 ? > 250 °C

Give the measured melting point of Cn1cc(-n2c(-c3cccc(F)c3)nc3c(Cl)ncnc32)ccc1=O . 219 °C

Entry under review: CNC(=S)N1CCN(c2cnccn2)CC1 . Reported melting point? 197 to 200 °C

Can you share its melting point? I mean this compound: O=C(O)c1ccc(-c2coc3ccc(-c4ccccc4)cc23)cc1 245 to 248 °C

Give the measured melting point of O=C(O)CC(Cn1cnc2c(=O)[nH]cnc21)C(=O)O (stereo not given) . 130 to 135 °C
